- assayed.system: human CD38 (Homo sapiens)
- Sequence (P28907 whole entry): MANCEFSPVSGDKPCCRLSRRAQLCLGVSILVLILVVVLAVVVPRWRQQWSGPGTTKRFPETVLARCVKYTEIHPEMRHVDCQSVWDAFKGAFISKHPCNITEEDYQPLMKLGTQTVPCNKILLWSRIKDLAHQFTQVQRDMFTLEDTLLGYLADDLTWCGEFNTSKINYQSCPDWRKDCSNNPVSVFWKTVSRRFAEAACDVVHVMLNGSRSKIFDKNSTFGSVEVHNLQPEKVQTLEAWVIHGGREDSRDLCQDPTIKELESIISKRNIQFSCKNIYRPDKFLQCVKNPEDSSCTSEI
- assay.method.text: human recombinant CD38 enzyme assay (hydrolysis of NAD+)
- assay.setup: human recombinant CD38, 0.4 nM enzyme, 62.5 μM NAD+; read-out: hCD38 BioChem IC50
pIC50: −log10 of the molar value.
measured.parameter: pIC50

Solved entries:
{"molecule": "Cn1cncc1-c1ccnc(C(=O)N[C@H]2CC[C@](O)(c3ccccc3)CC2)n1 [Compound 252]", "assayed.system": "human CD38 (Homo sapiens)", "pIC50": 6.59}
{"molecule": "CC(C)c1cc(C(=O)N[C@H]2CC[C@H](C(F)F)CC2)nc(-n2ccnc2)n1 [Compound 168]", "assayed.system": "human CD38 (Homo sapiens)", "pIC50": 6.50}
{"molecule": "O=C(Nc1ccc(F)cc1)c1cccc(-n2ccnc2)n1 [Compound 19]", "assayed.system": "human CD38 (Homo sapiens)", "pIC50": 8.15}
{"molecule": "O=C(Nc1ccc(C(F)F)nc1)c1cccc(-n2ccnc2)n1 [Compound 95]", "assayed.system": "human CD38 (Homo sapiens)", "pIC50": 8.40}
{"molecule": "CO[C@H]1CC[C@H](NC(=O)c2nc(C)cc(-c3cncn3C)n2)CC1 [Compound 191]", "assayed.system": "human CD38 (Homo sapiens)", "pIC50": 7.45}
{"molecule": "COCCO[C@H]1C[C@H](NC(=O)c2nccc(-c3cncn3C)n2)C1 [Compound 222]", "assayed.system": "human CD38 (Homo sapiens)", "pIC50": 6.03}

(a) O=C(Nc1ccc(C(F)F)nc1)c1cc(C2CCC2)nc(-n2ccnc2)n1 [Compound 186]
(b) O=C(NC1CCOCC1)c1cccc(-n2ccnc2)n1 [Compound 12]
Select the item with the higher value of pIC50 from the options a and b listed. Answer by stating the label of the chosen item. a

(1) CC(C)(C)c1cc(-n2ccnc2)nc(C(=O)Nc2ccc(C(F)F)nc2)n1 [Compound 188]
(2) O=C(NC1CCN(c2ccccc2)CC1)c1nccc(-n2ccnc2)n1 [Compound 263]
Compare 1 and 2 and name the one whose reported pIC50 is smaller. Answer by stating the label of the chosen item. 1
(1: 5.71, 2: 6.60)
